ASSAYED TARGET: p38 MAPKα isoform (MAPK14) (Homo sapiens (Human))
EXPERIMENT DESCRIPTION: p38 MAPKα enzyme inhibition (FRET, Z-LYTE), Method 1
Format: biochemical
TEST CONDITIONS: Method 1 (Table 4a1)
pIC50: −log10 of the molar value.
QUANTITY MEASURED: pIC50

1. Cc1ccc(-n2nc(C(C)(C)C)cc2NC(=O)Nc2ccc(Oc3ccnc(Nc4cccc(C(=O)N5CCOCC5)c4)n3)c3ccccc23)cc1 7.77
2. COc1cc(C(=O)NCCN2CCOCC2)ccc1Nc1nccc(Oc2ccc(NC(=O)Nc3cc(C(C)(C)C)nn3-c3ccc(C)cc3)c3ccccc23)n1 7.36
3. COCCNC(=O)c1cc(Nc2nccc(Oc3ccc(NC(=O)Nc4cc(C(C)(C)C)nn4-c4ccc(C)cc4)c4ccccc34)n2)cc(OC)c1 7.62

A = COCCNC(=O)c1cc(Nc2nccc(Oc3ccc(NC(=O)Nc4cc(C(C)C)nn4-c4ccc(C)cc4)c4ccccc34)n2)cc(OC)c1
B = COc1cc(C(=O)NCCO)ccc1Nc1nccc(Oc2ccc(NC(=O)Nc3cc(C(C)C)nn3-c3ccc(C)cc3)c3ccccc23)n1
Please indicate which item has the smaller measured pIC50: A versus B API: response body contains the label of the selected item.
A

====

ASSAYED TARGET: p38 MAPKα isoform (MAPK14) (Homo sapiens (Human), UniProt Q16539)
Sequence (Q16539 whole entry, canonical isoform): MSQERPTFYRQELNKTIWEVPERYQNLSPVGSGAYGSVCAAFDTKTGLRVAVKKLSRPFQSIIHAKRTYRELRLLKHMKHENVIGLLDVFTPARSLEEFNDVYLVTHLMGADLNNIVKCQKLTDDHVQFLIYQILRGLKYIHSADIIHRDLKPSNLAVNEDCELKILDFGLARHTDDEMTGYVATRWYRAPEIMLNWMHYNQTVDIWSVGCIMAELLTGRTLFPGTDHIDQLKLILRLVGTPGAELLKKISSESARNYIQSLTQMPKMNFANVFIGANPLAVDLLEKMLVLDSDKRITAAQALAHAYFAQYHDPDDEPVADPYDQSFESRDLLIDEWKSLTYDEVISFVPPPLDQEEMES
EXPERIMENT DESCRIPTION: p38 MAPKα enzyme inhibition (FRET, Z-LYTE), Method 1
Format: biochemical
TEST CONDITIONS: Method 1 (Table 4a1)
Method: The enzyme inhibitory activities of compounds disclosed herein are determined by FRET using synthetic peptides labelled with both donor and acceptor fluorophores (Z-LYTE, Invitrogen Ltd., Paisley, UK). The inhibitory activities of test compounds against the p38 MAPKα isoform (MAPK14: Invitrogen), are evaluated indirectly by determining the level of activation/phosphorylation of the down-stream molecule, MAPKAP-K2. […]
pIC50: −log10 of the molar value.
QUANTITY MEASURED: pIC50

1) COc1ccc(-n2nc(C(C)(C)C)cc2NC(=O)Nc2ccc(Oc3ccnc(Nc4cccc(C(=O)NCCN5CCOCC5)c4)n3)c3ccccc23)cc1 8.00
2) COc1ccc(-n2nc(C(C)(C)C)cc2NC(=O)Nc2ccc(Oc3ccnc(Nc4cc(OC)cc(C(=O)NCCN5CCOCC5)c4)n3)c3ccccc23)cc1 7.92
3) COc1cc(Nc2nccc(Oc3ccc(NC(=O)Nc4cc(C5CC5)nn4-c4ccc(C)cc4)c4ccccc34)n2)cc(C(=O)NCCN2CCOCC2)c1 8.70
4) Cc1ccc(-n2nc(C(C)C)cc2NC(=O)Nc2ccc(Oc3ccnc(Nc4cc(Cl)cc(C(=O)NCCN5CCOCC5)c4)n3)c3ccccc23)cc1 7.80
5) COc1cc(Nc2cc(Oc3ccc(NC(=O)Nc4cc(C(C)(C)C)nn4-c4ccc(C)cc4)c4ccccc34)ccn2)cc(C(=O)NCCN2CCOCC2)c1 7.40
6) Cc1ccc(-n2nc(C(C)(C)C)cc2NC(=O)Nc2ccc(Oc3ccnc(Nc4cc(Br)cc(C(=O)NCCN5CCOCC5)c4)n3)c3ccccc23)cc1 7.66
7) COc1ccc(-n2nc(C(C)(C)C)cc2NC(=O)Nc2ccc(Oc3ccnc(Nc4cc(Br)cc(C(N)=O)c4)n3)c3ccccc23)cc1 6.78
8) COc1cc(Nc2nccc(Oc3ccc(NC(=O)Nc4cc(C(C)(C)C)nn4-c4ccc(C)cc4)c4ccccc34)n2)cc(C(=O)NCCN(C)C)c1 8.40
9) COc1cc(Nc2nccc(Oc3ccc(NC(=O)Nc4cc(C(C)C)nn4-c4ccc(C)cc4)c4ccccc34)n2)cc(C(=O)N2CCN(C)CC2)c1 8.70
10) COCCOc1cccc(-n2nc(C(C)(C)C)cc2NC(=O)Nc2ccc(Oc3ccnc(Nc4cc(OC)cc(C(=O)NCCN5CCOCC5)c4)n3)c3ccccc23)c1 8.05

I = COc1cc(Nc2nccc(Oc3ccc(NC(=O)Nc4cc(C(F)(F)F)nn4-c4ccc(C)cc4)c4ccccc34)n2)cc(C(=O)NCCN2CCOCC2)c1
II = Cc1ccc(-n2nc(C(C)(C)C)cc2NC(=O)Nc2ccc(Oc3ccnc(Nc4cccc(C(=O)NCCN5CCOCC5)c4)n3)c3ccccc23)cc1
Which shows the larger pIC50 value: I or II ? API: response body contains the label of the selected item.
II
(II: 8.15, I: 7.74)

a = CCc1cc(NC(=O)Nc2ccc(Oc3ccnc(Nc4cc(OC)cc(C(=O)NCCN5CCOCC5)c4)n3)c3ccccc23)n(-c2ccc(C)cc2)n1
b = COc1ccc(C(=O)NCCN2CCOCC2)cc1Nc1nccc(Oc2ccc(NC(=O)Nc3cc(C(C)(C)C)nn3-c3ccc(C)cc3)c3ccccc23)n1
c = COc1cc(Nc2nccc(Oc3ccc(NC(=O)Nc4cc(C(C)C)nn4-c4ccc(C)cc4)c4ccccc34)n2)cc(C(=O)NCCO)c1
Given 3 compounds, produce a descending ranking by pIC50. List labels; respect the requested ordering.
a, b, c

====

ASSAYED TARGET: p38 MAPKα isoform (MAPK14) (Homo sapiens (Human), UniProt Q16539)
EXPERIMENT DESCRIPTION: p38 MAPKα enzyme inhibition (FRET, Z-LYTE), Method 1
Assay type: biochemical
TEST CONDITIONS: Method 1 (Table 4a1)
QUANTITY MEASURED: IC50 (nM)

I = COc1ccc(-n2nc(C(C)C)cc2NC(=O)Nc2ccc(Oc3ccnc(Nc4cc(OC)cc(C(=O)NCCN5CCOCC5)c4)n3)c3ccccc23)cc1 [Example 53]
II = COc1ccc(C(=O)NCCN2CCOCC2)cc1Nc1nccc(Oc2ccc(NC(=O)Nc3cc(C(C)C)nn3-c3ccc(C)cc3)c3ccccc23)n1 [Example 30]
Please indicate which item has the smaller measured IC50: I versus II API: response body contains the label of the selected item.
I
